Hey, just so you know, these numbers are from patent US20240254093A1.

TARGET_UNDER_TEST: GPR35 (Homo sapiens (Human))
Sequence (Q9HC97 whole entry): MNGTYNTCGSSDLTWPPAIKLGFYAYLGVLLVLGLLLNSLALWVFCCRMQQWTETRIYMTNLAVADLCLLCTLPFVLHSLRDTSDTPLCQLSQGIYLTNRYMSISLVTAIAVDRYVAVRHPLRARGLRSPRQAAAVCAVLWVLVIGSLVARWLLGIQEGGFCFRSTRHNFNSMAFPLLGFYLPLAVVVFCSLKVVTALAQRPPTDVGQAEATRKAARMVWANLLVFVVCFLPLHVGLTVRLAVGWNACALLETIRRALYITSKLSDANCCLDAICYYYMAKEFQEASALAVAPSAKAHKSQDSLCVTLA
PROCEDURE_TEXT: Label-free DMR functional assay in HT-29 cells
Assay type: cell-based
MEASUREMENT_SETUP: HT-29 cell line endogenously expressing human GPR35; DMR normalised to Lodoxamide
MEASURED_QUANTITY: pEC50
Numbers only, as −log10 of the molar value.

Reference set, count: 2
INSERT INTO assay_data (molecule, test_result) VALUES
  ('COCCNC(=O)c1ccc(-c2cc(Nc3c(O)c(=O)c3=O)cc(-c3nn[nH]n3)c2)cc1 [Example 7]', 8.38),
  ('COCCOc1ccc(CNC(=O)c2ccc(-c3cc(Nc4c(O)c(=O)c4=O)cc(-c4nn[nH]n4)c3)cc2)cc1 [Example 8]', 9.18);

# per-item lookup of pEC50; items listed below
1. O=c1c(O)c(Nc2cc(-c3ccccc3)cc(-c3nn[nH]n3)c2)c1=O [Example 3]
2. O=c1c(O)c(Nc2cc(-c3nn[nH]n3)cc(Oc3ccccc3)n2)c1=O [Example 22]

1: 8.64; 2: 8.86

Each molecule below has a recorded value; state its pEC50.
1. O=C(NCc1ccc(C(F)(F)F)cc1)c1ccc(-c2cc(Nc3c(O)c(=O)c3=O)cc(-c3nn[nH]n3)c2)cc1 [Example 12]
2. O=c1c(O)c(Nc2cc(-c3ccc(OCc4ccccc4)nc3)cc(-c3nn[nH]n3)c2)c1=O [Example 16]

[10.52, 9.57]
